test.details: chemical genetic growth profiling, strain panel (AID 1159580);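 also: tested at 20 µM; growth read once vehicle control cultures reached saturation at 30 °C; 1 = growth at the plate median or of vehicle wells; lower values mean less growth of the strain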
condition.set: S. cerevisiae deletion strains, growth OD, locus YHR094C, strain hxt1, stronger effect = lower value
The whole screen tested about 5,500 compounds, of which about 2,000 (36%) were called active. About 18% were inconclusive and are not listed. The list shows a part of the results.
property.name: normalized growth
Answer field: number only, no words.

Below, 5 molecules whose answers are already recorded.
>>> print(df.to_string())
                                   molecule      property_name  data_value
0  C[C@]12CCC(=O)C=C1CCC1C2C(=O)C[C@@]2(C)C1CC[C@]2(O)C(=O)CO (stereo partly drawn)  normalized growth       0.996
1  Cc1onc(-c2c(Cl)cccc2Cl)c1C(=O)N[C@@H]1C(=O)N2[C@@H]1SC(C)(C)[C@@H]2C(=O)O  normalized growth       0.994
2  C[C@]12CCC(=O)C=C1CCC1C2[C@@H](O)C[C@@]2(C)C1CC[C@]2(O)C(=O)COC(=O)CCC(=O)O (stereo partly drawn)  normalized growth       0.993
3              NC(=O)N1c2ccccc2C=Cc2ccccc21  normalized growth           1
4                COc1cc(/C=C/C=O)cc(OC)c1OC  normalized growth       0.995

Exercise: Name the reported normalized growth value associated with the molecule CC[C@@H](CO)NC(=O)[C@@H]1C=C2c3cccc4[nH]cc(c34)C[C@H]2N(C)C1
Solution: 0.985

Exercise: Name the reported normalized growth value associated with the molecule COc1cc2c(cc1OC)[C@@]13CCN4CC5=CCOC6CC(=O)N2C1[C@H]6[C@H]5C[C@H]43 (stereo partly drawn)
Solution: 0.977

Exercise: Name the reported normalized growth value associated with the molecule CNC(Cc1c[nH]c2ccccc12)C(=O)O (stereo not drawn)
Solution: 0.979

Exercise: Name the reported normalized growth value associated with the molecule NCCc1c[nH]c2ccccc12
Solution: 0.994

Exercise: Name the reported normalized growth value associated with the molecule NC(N)=NC(N)=Nc1ccccc1
Solution: 0.987

Exercise: Name the reported normalized growth value associated with the molecule COc1cnc(NS(=O)(=O)c2ccc(N)cc2)nc1
Solution: 0.984

Exercise: Name the reported normalized growth value associated with the molecule Cc1cc(C(C)(C)C)cc(C)c1CC1=NCCN1
Solution: 1
